All figures here come from patent US20250027068.

# TARGET ENTITY: pooled human IgG (human IgG1, 2, 3 and 4)
Quick reference: Enzyme Activity Endpoint Assay (purified): Fc of the listed items.
Numeric answer only, unit ng/µL assumed.

Example entries and their recorded answers appear below.
PRT-696 (protein) MTITSVWTKGVTPPTPEDFRYNNEDVLHAPYVPNQGWYDITKTFDGGDNLLCGAATAGNMLHWWFDQNKEEIERYLKKYPEKQKIIFNNQELFDVRAAINSKDSQTNSKLFNYFRDKAFPNLSARQLGVMPDLVLDMFINGYYLNLGKTQSTDVNRPYQDPDKRGGIFDDVFKEGDQTTLLTARHDLKNGGLNEISDLIKQELQSGKALALSHTYANVRINHVINLWGADFDAEGNLIAIYVTDSDANQSIGMKKYKVGVNANGKVAISAKKIEGDNIGAQVLGLFTLSTGQEIWQKLSLEHHHHHH: 0
PRT-692 (protein) MQITSVWTKGVTPPTPEQFRYNNEDVIHAPYLPNQGWYDITKTFNGGDNLLCGAATAGNMLHWWFDQNKTEIEAYLSKYPEKQKIIFNNQELFDLRAAINSKDSQTNSQLFNYFRDKAFPNLSARQLGVMPDLVLDMFINGYYLNVFKTQSTDVNRPYQDPDKRGGIFDDVFKEGDQTTLLTARHDLKNGTLNDISTLIKQELQSGKALALSHTYANVSISHVINLWGADFNAEGNLEAIYVTDSDANQSIGMKKYKVGVNAHGKVAISAKKIEGENIGAQVLGLFTLSSGKEIWQKLSLEHHHHHH: 44
PRT-602 (protein) MANQEIRYSEVTPYHITSVWTKGVTPPANFTQGEDVFHAPYVANQGWYDITKTFNGKDDLLCGAATAGNMLHWWFDQNKDQIERYLEEHPEKQKINFNGEQMFDVKEAIDTKDSQTDSKLFEYFKEKAFPYLSTKHLGVFPDHVIDMFINGYRLSLTNHGPTPVKEGSKDPRGGIFDAVFTRGDQSKLLTSRHDFKEKTLKEISDLIKQELTEGKALGLSHTYANVRINHVINLWGADFDSEGNLKAIYVTDSDSNASIGMKKYYVGVNSAGKVAISAKEIEEDNIGAQVLGLFTLSTGQDIWNQTNLEHHHHHH: 375

Q: Could you share which Enzyme Activity Endpoint Assay (purified): Fc value was measured for PRT-661 (protein) MQITSVWTKGVTPLTPEQFRYNNEDVIHAPYLANQGWYDITKTFDGKDNLLCGAATAGNMLHWWFDQNKTEIEAYLSKHPEKQKIIFNNQELFDLKKAIDTKDSQTNSQLFNYFRDKAFPNLSARQLGVMPDLVLDMFINGYYLNVFKTQSTDVNRPYQDKDKRGGIFDAVFTRGDQTTLLTARHDLKNKGLNDISTIIKQELTEGRALALSHTYANVSISHVINLWGADFNAEGNLEAIYVTDSDSNASIGMKKYFVGINAAGHVAISAKKIEGENIGAQVLGLFTLSSGKDIWQKLSLEHHHHHH ?
A: 121
